Values from ChEMBL document CHEMBL1132505

The following compounds are listed with their measured inhibition values.
biological target: Glutamate receptor ionotropic, AMPA (Rattus norvegicus) (UniProt P19491+P19492+P19493+P19490); assay: Inhibition of KA induced currents associated with activation of the AMPA subtype of glutamate receptors in cerebellar neurons at a concentration of 10 uM; format: protein-complex assay
Give the number first and the unit second.

Study these solved cases before continuing.
>  <compound>
CCCCNC(=O)N1N=C(c2ccc(N)cc2)c2cc3c(cc2C1C)OCO3 (stereo not given)

>  <inhibition>
62%

$$$$
>  <compound>
CCCNC(=O)N1N=C(c2ccc(N)cc2)c2cc(OC)ccc2C1C (stereo not given)

>  <inhibition>
52%

$$$$
>  <compound>
CCCNC(=O)N1N=C(c2ccc(N)cc2)c2cc(F)ccc2C1C (stereo not given)

>  <inhibition>
55%

$$$$
>  <compound>
CCCCNC(=O)N1N=C(c2ccc(N)cc2)c2cc(OC)ccc2C1C (stereo not given)

>  <inhibition>
50%

$$$$

Query compound follows.
Request: Fill in inhibition for record CCCNC(=O)N1N=C(c2ccc(N)cc2)c2cc3c(cc2C1C)OCO3 (stereo not given)
Result: 58%
